# TESTED TARGET: T1, recombinant human VEGF110 (human, UniProt P15692-4 27-136, limits assumed)
# T1 construct: Made in house; also called hVEGF110
# T1 sequence (looked up): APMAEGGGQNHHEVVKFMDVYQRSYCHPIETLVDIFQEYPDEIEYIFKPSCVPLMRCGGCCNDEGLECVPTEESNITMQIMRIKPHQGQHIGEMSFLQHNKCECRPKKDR
# ASSAY TEXT: Biacore SPR, VEGF immobilized, pH 5
OBSERVABLE: koff (s⁻¹)
Give the quantity in s⁻¹, number only.

Exercise: Please give the documented koff of 509-maxII (scFv, VH tied by name; also called Protein Nr) scFv: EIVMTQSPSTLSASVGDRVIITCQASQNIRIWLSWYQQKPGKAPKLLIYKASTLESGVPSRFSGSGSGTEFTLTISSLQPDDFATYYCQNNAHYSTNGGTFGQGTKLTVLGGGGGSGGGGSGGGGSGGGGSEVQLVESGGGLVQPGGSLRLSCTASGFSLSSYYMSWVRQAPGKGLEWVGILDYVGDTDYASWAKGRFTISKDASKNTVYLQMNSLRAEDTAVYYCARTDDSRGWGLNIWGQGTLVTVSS
Solution: 0.00133
